For each entry below, report its apparent KD of MS2 coat protein value.
# Test system: MS2 coat protein
# assayExplanation: apparent KD of MS2 coat protein; higher = weaker reporter binding
# testConditions: Eterna round: R107; input ligand: theophylline 20 uM
Respond with the bare value in nM.

-- ask Please give the documented apparent KD of MS2 coat protein of CGGUACAUGAGGAUCACCCAUGUGUCGGAUACCAGAGAGCCGGCUCUCCCUUGGCAGCUGGUGCGACAUGAGGAUCACCCAUGUG [Exclusion Theophylline A GF19]
-- reply 58.5

-- ask Determine its reported apparent KD of MS2 coat protein: AGUGUUAUAACUGAUACCAGACCUUUGCUUAUACAUGAGGAUCACCCAUGUAAAAUGGCGGUCCCUUGGCAGCAGAGAAUACACA [#08 Same State - Theophylline B]
-- reply 32.9

-- ask Indicate its recorded apparent KD of MS2 coat protein; the sequence in question is UUCUGGACCCGUGAUACCAGAGACAUGAGGAUCACCCAUGUACAUGAGGAUCACCCAUGUCUCCCUUGGCAGCACUGCAGGGAGC [Exclusion Theophylline B GF 14]
-- reply 169

-- ask Read the entry AAUGUAUGGCACAUGAGGAUCACCCAUGUGCGAGGACCGGUACGGCCGCCACUCGGUCAAGGGAUCUUACCUCUAUACAUUAAUG [XTryp A #22] and write its reported apparent KD of MS2 coat protein.
-- reply 14.7

-- ask Indicate its recorded apparent KD of MS2 coat protein; the sequence in question is UUGACAUGAGGAUCACCCAUGUUAGCUGAAGGAGCGAGGUAGUACUCAGGUAGGUCGCAGAGAGCAGAGUUAGUUGUUCUCAUGU [X-ArgiA-ms2@4]
-- reply 28.5

-- ask Annotate the sequence CUGUACAUCUCGGCCGCCACUGCUGACAUGGGAGUCACCCAUGUCCACAUGAGGAUCACCCAUGUCAGGACCGGGAGGUGUGCAG [SSTryp B #25] with its measured apparent KD of MS2 coat protein.
-- reply 272

-- ask Return apparent KD of MS2 coat protein for the following sequence: UGCCGAGACGUGGAUUACCCGUGUACCGAAGGAGCGCCCGAAAGGGCAGGUAGGUCGCGGAGGACAUGAGGAUCACCCAUGUUGA
-- reply 43.7

-- ask Quote apparent KD of MS2 coat protein reported for AGAAUGUAAUAUGGCAAAGUUAUAACCGAAGGAGCGCCGAAUAAGGCAGGUAGGUCGCGGAAACAUGAGGAUCACCCAUGUCCAU [Arginine A Same State; Euphoria Solution 3] please.
-- reply 19

-- ask Supply measured apparent KD of MS2 coat protein of GGAUAGGACACGGCCGCCACUACCUAGGAUACUAGCAACAUUUGGGUACACGAGGAUCACCCGUGUAGGACCGGGUGUCCUAUCG in your reply.
-- reply 18.1

-- ask Check the records and state apparent KD of MS2 coat protein for GGAUAGGACACGGCCGCCACUAGCUAGGAUACUAGCAACAUUUCCUCGCAUGAGGAUCACCCAUGUAGGACCGGGUGUCCUAUCG
-- reply 638

-- ask Return value of apparent KD of MS2 coat protein for input GUCUUGGAAUCGGCCGCCACUACAUGAGGAUCACCCAUGUGGACAAAUAGGGUUUUUAAGCUCGGUAGGACCGGGAUUCGGACAU [Mamaon] , no commentary.
-- reply 15.9

-- ask Tell me measured apparent KD of MS2 coat protein for UGUCAGCGAAAGUUGACAUGUCUUACCGGUCGAGGACCGGUACGGCCGCCACUCGAUCACUCGCACAUGAGGAUCACCCAUGUCG [SS Tryp A #20] please.
-- reply 14.5

-- ask Fill in apparent KD of MS2 coat protein for record UGGUACAUGGCGGCCGCCACUUCACGUAAAAUAAAAGCGUGAGGAUCACCCAUGCAAUAAGUUGGGAGGACCGGGUCAUGUACCU
-- reply 633

====

Please provide measured apparent KD of MS2 coat protein for the entries that follow.
# Test system: MS2 coat protein
# assayExplanation: apparent KD of MS2 coat protein; designed switch direction (-1 OFF switch, 1 ON switch): -1; higher = weaker reporter binding
# testConditions: input ligand: FMN 200 uM
The response must be a number in nM with no trailing unit.

-- ask Supply reported apparent KD of MS2 coat protein belonging to this sequence: UUGCAGUCGUCAGGAUAUAGUAUUACGGCCUUUUAUUUCUUCAUACAUGAGGAUCACCCAUGUCGCUAGAAGGGAUUAUCGAUU [salish99_ExNG2_r04_105] (Eterna round: R96, puzzle: Exclusion NG 2)
-- reply 17.8

-- ask Hello, please tell me recorded apparent KD of MS2 coat protein for this one: GUACCAAAUGUAGGAUAUGGAUCCGAUUAGGAUCCAGAAGGACAUGAGGAUCACCCAUGUACAUGAGGAUCACCCAUUAGGUAC [Fiskers ExNg1 - 11] (Eterna round: R96, puzzle: Exclusion NG 1)
-- reply 97.2

-- ask Read the entry CAUGAUUGGCGAGGAUAUUGUUCUACAUGGCGACGAGAAGGCGCCUGUCACAUGAGGAUCACCCAUGUGAGUCUGGUGAAUGAG [Ex NG1 #84] (Eterna round: R96, puzzle: Exclusion NG 1) and write its reported apparent KD of MS2 coat protein.
-- reply 27

====

Field: apparent KD of MS2 coat protein. Provide a value for each of the sequences that follow.
# System: MS2 coat protein
# assayExplanation: apparent KD of MS2 coat protein; designed switch direction (-1 OFF switch, 1 ON switch): -1; higher = weaker reporter binding
# testConditions: input ligand: microRNA oligo, concentration not stated
Give the number; nM is assumed, so skip it.

-- ask Quick one: give measured apparent KD of MS2 coat protein for CUAGCGAAUGUAGGAUAUCGGACUGUUUCAGUCUGAGAAGGACAUGAGGAUCACCCAUGUAUAGCUACGUGAGUAGCACGCUAG [JL ENG1 3.90] (Eterna round: R96, puzzle: Exclusion NG 1)
-- reply 16.1

-- ask Give the value of apparent KD of MS2 coat protein reported for the following: UUCGUGCAGCUUUGCUGUACGCGUACAUGAGGAUCACCCAUGUAGGAUAUGGUAGGCAAAGCUUACUAGAAGGAUAGAGUGAUC [Mat - Exclusion NG 3 - Mod of JL - D74] (Eterna round: R96, puzzle: Exclusion NG 3)
-- reply 92.8

-- ask Please give the documented apparent KD of MS2 coat protein of AAGGAUAGAGGAUAUACAUAGAUACAGAUUCAUGUAGUCCUACAUGAGGAUCACCCAUGUAGAAGGCUAUCCUA [Fiskers Ex 2 - 12] (Eterna round: R96, puzzle: Exclusion 2)
-- reply 14.3

-- ask Retrieve apparent KD of MS2 coat protein measured for ACGAUGACAGAAAGAAGUCAAAAGACAUGAGGAUCACCCAUGUAGGAUAUGGCUACGAAAAGUAGUCAGAAGGACUUGUCAUCA [Omei Exc(NG) 3 Av2] (Eterna round: R96, puzzle: Exclusion NG 3) and print it.
-- reply 9.48

====

# Test system: MS2 coat protein
# assayExplanation: apparent KD of MS2 coat protein, switch OFF state (with FMN for OFF switches, without FMN for ON switches); designed switch direction (-1 OFF switch, 1 ON switch): 1; higher = weaker reporter binding
# testConditions: FMN input: 0 or 200 uM; Eterna round: R93 (includes R88 designs)
reportedMetric: apparent KD of MS2 coat protein (nM)
Answer format: numeric, nM implied, no suffix.

-- ask Consider the sequence AUAAAAUAAAGUGAGGAUAUCUAUAAUAAAACAUGAGGAUCACCCAUGUUAAAAAAAAGAUCAUGGGAGAAGGCAUAAAAUAAAU [SS2 M 31] and give its recorded apparent KD of MS2 coat protein.
-- reply 21.7

-- ask For the sequence UGGAAGGAGAGAGAGGAUAUCCAAAGGAAAACAUGAGGAUCACCCAUGUAGAAGGUAGGAAAUUGGGAGAAGGCUCAAGAGAGAG [salish99-ss2-117] , give its measured apparent KD of MS2 coat protein value.
-- reply 27.5

-- ask Please report apparent KD of MS2 coat protein for the following sequence: GACUGACAUGAGGAUCACCCAUGUAUUCGAGCAUGAGGAUAUAUGACACGUCAUCGACGGAUAGAAGGCAUGGAUG [JR_SS001_Sub1211]
-- reply 208

-- ask Give a short answer stating reported apparent KD of MS2 coat protein for AGGAAACAUGAGGAUCACCCAUGUAAAAAUAUGGGAGGAUAUACUAGAAGAAACAAAAUAGUAGAAGGCCUAAAAA [75%, Ex sub1, 26] .
-- reply 47.4

-- ask Supply apparent KD of MS2 coat protein value. Item: UUCUCCACUAGCAAGGAUAUCUAAAACUAAACAUGAGGAUCACCCAUGUGACGACCACACGUAUCAGAGAAGGUGCAGGGUGUAU [JR_SS002_Sub308]
-- reply 42.5

-- ask Consider the sequence UGGAGACAUGAGGAUCACCCAUGUGAGAAGAGGCGAGGAUAUCGAAAGAAAGAAGAGAAACGAGAAGGCGCGAGCA [salish99-SS1-040] . State its measured apparent KD of MS2 coat protein.
-- reply 40.2

-- ask Please list apparent KD of MS2 coat protein recorded for the sequence GACUGACAUGAGGAUCACCCAUGUAUUCAAACAUGAGGAUAUAUAACACGUCAUCGACGGAUAGAAGGCAUAGAUG [JR_SS001_Sub1209]
-- reply 162

-- ask Identify measured apparent KD of MS2 coat protein associated with AAAAAAAAAGUCGAGGAUAUCCACAUGGUGACAUGAGGAUCACCCAUGUGAAGAAAAGCACAUGAGGAGAAGGCGACAAAAAAAA [Same State 2.7b (Tightrope mod)]
-- reply 1110

-- ask Report apparent KD of MS2 coat protein, nothing else, for this sequence: GGAAAACAUGAGGAUCACCCAUGUUAGUGUCAUUAAGGAUAUGGGCUUAAGAAUUUGAGACUAGAAGGUGAUGCGC [Soisla]
-- reply 49.2

-- ask Tell me apparent KD of MS2 coat protein reported for AAAAAACAUGAGGAUCACCCAUGUGAAAAUAUGGGAGGAUAUACAAACACGAAAGUGAAAGUAGAAGGCCUAAAAA [SS! MT 16]
-- reply 167

-- ask Answer with the recorded apparent KD of MS2 coat protein for the sequence listed here: AGGUAACAUGAGGAUCACCCAUGUACCGAUAAUGCAGGAUAUCGACACGAAAAUACGUGUCGAGAAGGGCAUGAAA [SS1 MT 23]
-- reply 13.5

-- ask Tell me its apparent KD of MS2 coat protein given AAAUAAAGGACUGAGGAUAUACCACAUGAAACAUGAGGAUCACCCAUGUAGAAAUACAGAGGGUGGUAGAAGGCAGUCCACAAAC [Same State 2.5h ( so lets mod hyphema)] as the entry.
-- reply 57.2

-- ask Recall and state the measured apparent KD of MS2 coat protein for AAAAGACAUGAGGAUCACCCAUGUAAAAACGUAGGAGGAUAUGUCUUGAAAAAAGACUUGACAGAAGGCCUGUGUC [SS1 - 53] .
-- reply 34.6

-- ask Please give the documented apparent KD of MS2 coat protein of AAAGACACAGUGCAGGAUAUAGUAAUAGUCACAUGAGGAUCACCCAUGUUCUUUUAUAAGAACGAUUAGAAGGGCGGUGAAAAAA [SameState2 Malc#11]
-- reply 383

-- ask Please give measured apparent KD of MS2 coat protein of the following entry: AAAAAACAUGAGGAUCACCCAUGUCGAAAGACGUGAGGAUAUGUACAGACUUCGGUCUGUACAGAAGGCACGUCAA [SS1 - 1044]
-- reply 24.8

-- ask State its apparent KD of MS2 coat protein for this sequence: UGUUCGAGUAGUGAGGAUAUUCAUGGGCCCACAUGAGGAUCACCCAUGUAAUGGACCGGGCCGAAGGAGAAGGCGCGUAAAAUUA [Atceve]
-- reply 140

-- ask Give a short answer stating reported apparent KD of MS2 coat protein for GACAAACAUGAGGAUCACCCAUGUAGACAUAUGGGAGGAUAUACACAGACGAAAGUCACAGUAGAAGGCCUACAAG [77%, Mat - Mod of Eli - With 5 more C's] .
-- reply 82.4

-- ask Provide measured apparent KD of MS2 coat protein value, entry: AAAACACAUGAGGAUCACCCAUGUGCCUAACUCGCAGGAUAUUUCUCGAUUAAAUGAUAGGAAGAAGGGUGAUAAA [Nob's Hobby 37 - Jieux - Same State 1]
-- reply 39.4

Values from the supplement of paper PMC9170038
